# Tested on: Cryptococcus neoformans
# ASSAY_SUMMARY: Antifungal activity against Cryptococcus neoformans ATCC 90113 by CLSI method
# Assay type: functional, organism-based
# SETTINGS: read-out: pIC50 (converted)
IC50 under 2000 nM gets class 1, anything at or over 2000 nM gets class 0.

[[record]]
molecule = "FC(F)(F)c1ccccc1Sc1cc2ccccc2[n+](CCCCCC2CCCCC2)c1.[I-]"
category = "class 0"


Now consider a different molecule.
Is the reported IC50 for COc1ccc(Sc2cc3ccccc3[n+](CCCCCC3CCCCC3)c2)cc1.[I-] strictly below 2000 nM?
class 1

---

# maps each entry to its pIC50
# System: Cryptococcus neoformans
# ASSAY_SUMMARY: Antifungal activity against Cryptococcus neoformans ATCC 90113 by CLSI method
# Format: functional, organism-based
# SETTINGS: read-out: IC50
Friendly reminder that pIC50 comes from taking -log10 of the concentration in mol/L.

These solved cases illustrate the format of a correct answer.
[[record]]
molecule = "COc1ccccc1CSc1cc2ccccc2[n+](CCCCCC2CCCCC2)c1.[I-]"
system_name = "Cryptococcus neoformans"
recorded_endpoint = "pIC50"
measured_result = 6.21

[[record]]
molecule = "COc1ccc(Sc2cc3ccccc3[n+](CCCCCC3CCCCC3)c2)cc1.[I-]"
system_name = "Cryptococcus neoformans"
recorded_endpoint = "pIC50"
measured_result = 6.14

[[record]]
molecule = "COc1cccc(Sc2cc3ccccc3[n+](CCCCCC3CCCCC3)c2)c1.[I-]"
system_name = "Cryptococcus neoformans"
recorded_endpoint = "pIC50"
measured_result = 4.73

[[record]]
molecule = "[I-].[O-][S+](c1ccc(C(F)(F)F)cc1)c1cc2ccccc2[n+](CCCCCc2ccccc2)c1 (stereo not drawn)"
system_name = "Cryptococcus neoformans"
recorded_endpoint = "pIC50"
measured_result = 5.00

[[record]]
molecule = "[I-].[O-][S+](c1ccc(F)cc1)c1cc2ccccc2[n+](CCCCCc2ccccc2)c1 (stereo not drawn)"
system_name = "Cryptococcus neoformans"
recorded_endpoint = "pIC50"
measured_result = 4.56

[[record]]
molecule = "C[n+]1c2ccccc2cc2[n-]c3ccccc3c21 [CRYPTOLEPINE]"
system_name = "Cryptococcus neoformans"
recorded_endpoint = "pIC50"
measured_result = 4.36


For reference, reported pIC50 for Fc1cccc(Sc2cc3ccccc3[n+](CCCCCC3CCCCC3)c2)c1.[I-] stands at 4.88

For reference, reported pIC50 for Fc1ccccc1CSc1cc2ccccc2[n+](CCCCCC2CCCCC2)c1.[I-] stands at 6.02

---

# maps each entry to its Activity
# System: Vero
# ASSAY_SUMMARY: Cytotoxicity against african green monkey Vero cells after 48 hrs by Neutral Red dye assay
# Format: cell-based
# SETTINGS: chlorocebus sabaeus
Dear colleague, please return just the value in µM, with no unit written.

[[record]]
structure = "Cc1ccccc1Sc1cc2ccccc2[n+](CCCCCC2CCCCC2)c1.[I-]"
system_name = "Vero"
units_label = "µM"
measured_result = 7.53

[[record]]
structure = "C[C@@H]1[C@H](O)[C@@H](C)/C=C/C=C/C=C/C=C/C=C/C=C/C=C/[C@H](O[C@@H]2O[C@H](C)[C@@H](O)[C@H](N)[C@@H]2O)C[C@@H]2O[C@](O)(C[C@@H](O)C[C@@H](O)[C@H](O)CC[C@@H](O)C[C@@H](O)CC(=O)O[C@H]1C)C[C@H](O)[C@H]2C(=O)O"
system_name = "Vero"
units_label = "µM"
measured_result = 7.03

[[record]]
structure = "Oc1ccccc1Sc1cc2ccccc2[n+](CCCCCC2CCCCC2)c1.[I-]"
system_name = "Vero"
units_label = "µM"
measured_result = 17.4

[[record]]
structure = "Cc1ccc(CSc2cc3ccccc3[n+](CCCCCC3CCCCC3)c2)cc1.[I-]"
system_name = "Vero"
units_label = "µM"
measured_result = 6.78


Okay, now this compound:
Considering Cc1cccc(Sc2cc3ccccc3[n+](CCCCCC3CCCCC3)c2)c1.[I-] , its Activity with Vero was recorded as 6.96

// provenance: ChEMBL document CHEMBL2440089
